These measurements were taken from PubChem BioAssay (NCI).

- TEST DESCRIPTION: NCI Yeast Anticancer Drug Screen. Data for the sgs1 mgt1 strain (AID 161);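 also: 0% = growth of cultures given vehicle only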
- EXPERIMENTAL SETUP: S. cerevisiae sgs1 mgt1 strain, at 5.0 µM (retest, dose inferred, filed as 0.5), active compounds read high
Compounds without any hit were thinned out: in the full panel of roughly 79,000, 15% have a hit.
ATTRIBUTE MEASURED: growth inhibition (%)

[
  {
    "ENTRY SMILES": "N#C/C(=C1C=C/C(=N/O)c2ccccc2/1)c1ccccc1",
    "MEASURED NUMBER": 60
  },
  {
    "ENTRY SMILES": "CC(=O)Oc1ccc(C(=O)c2ccccc2)c(O)c1",
    "MEASURED NUMBER": -18
  },
  {
    "ENTRY SMILES": "O=C(CCc1ccccc1)ON1C(=S)C(c2ccccc2)(c2ccccc2)N=C1Sc1ccccc1",
    "MEASURED NUMBER": -22
  },
  {
    "ENTRY SMILES": "COc1ccc(/C=C2\\SC(=S)N(C=C3C(=O)NC(=S)NC3=O)C2=O)cc1OC",
    "MEASURED NUMBER": -6
  }
]

----------
- TEST DESCRIPTION: NCI Yeast Anticancer Drug Screen. Data for the mec2-1 strain (AID 157)
- EXPERIMENTAL SETUP: S. cerevisiae mec2-1 strain, at 33.0 µM
Compounds without any hit were thinned out: in the full panel of roughly 79,000, 15% have a hit. Active and inactive are the calls of the source. Cut-off read from the data, not from the text of the source: active = growth inhibition above about 70%; inactive = the rest.
Possible outcomes: y = active, n = inactive

[
  {
    "COMPOUND": "CCOC(=O)c1csc(Br)n1",
    "CLASSIFICATION": "n"
  },
  {
    "COMPOUND": "COCCCN(Cc1cc(OC)c(OC)c(OC)c1)C(=S)Nc1cccc(Cl)c1",
    "CLASSIFICATION": "n"
  },
  {
    "COMPOUND": "CCCCCCCCCCCCCCCCNC(=O)/C(=C\\c1ccc(Cl)c(Cl)c1)NC(=O)c1ccccc1",
    "CLASSIFICATION": "n"
  },
  {
    "COMPOUND": "CN(Cc1cnc2nc(N)nc(N)c2n1)c1ccc(C(=O)NC(CCC(=O)O)C(=O)O)c2ccccc12 (centres undefined)",
    "CLASSIFICATION": "y"
  }
]

----------
- TEST DESCRIPTION: NCI Yeast Anticancer Drug Screen. Data for the rad50 strain (AID 155);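 also: 0% = growth of vehicle-only cultures of the same strain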
- EXPERIMENTAL SETUP: S. cerevisiae rad50 strain growth inhibition; at 50.0 µM (retest, dose inferred, filed as 5.0); active compounds read high
Compounds without any hit were thinned out: in the full panel of roughly 79,000, 15% have a hit.
Definition: the class of an entry is the range in low (below 60%), mid (60% to below 90%), high (90% or more) that contains its growth inhibition.

[
  {
    "MOLECULE": "CCCCCC(=O)c1ccc(O)cc1O",
    "CLASSIFICATION": "high"
  },
  {
    "MOLECULE": "CC(=O)Oc1ccc(N2C(=O)C3c4[nH]c5ccccc5c4C4CCC(C(C)(C)C)CC4C3C2=O)cc1 (stereo unspecified)",
    "CLASSIFICATION": "high"
  },
  {
    "MOLECULE": "Cc1cc(Cl)ccc1NC(=O)/C(Cl)=C1/Sc2ccccc2NC1=O",
    "CLASSIFICATION": "mid"
  },
  {
    "MOLECULE": "OC(CN1CCCCC1)c1cc(Cl)c(Cl)c(Cl)c1 (stereo unspecified)",
    "CLASSIFICATION": "low"
  },
  {
    "MOLECULE": "O=C1C=CC(=O)N1c1ccc(N2C(=O)C=CC2=O)cc1",
    "CLASSIFICATION": "mid"
  },
  {
    "MOLECULE": "Cc1cccc2c1N=C(C(F)(F)F)CC2=O",
    "CLASSIFICATION": "low"
  },
  {
    "MOLECULE": "c1ccc2c(c1)ccc1c3ccncc3ccc21",
    "CLASSIFICATION": "high"
  },
  {
    "MOLECULE": "CNc1ccc(Cc2c[nH]c3ccccc23)cc1",
    "CLASSIFICATION": "mid"
  },
  {
    "MOLECULE": "S=C1SCN(CCc2ccccc2)CN1CCc1ccccc1",
    "CLASSIFICATION": "low"
  },
  {
    "MOLECULE": "COc1ccc(N2CN(C)CSC2=S)cc1",
    "CLASSIFICATION": "high"
  },
  {
    "MOLECULE": "CN(CC(=O)O)c1ccc(/C=C/c2ccnc3ccccc23)cc1",
    "CLASSIFICATION": "low"
  },
  {
    "MOLECULE": "O=c1[nH]c2ccccc2c2nc3ccccc3n12",
    "CLASSIFICATION": "high"
  },
  {
    "MOLECULE": "CC(C)(C)[OH+][O-].[O-]c1ccc(Cl)cc1C=Nc1ccc(Cl)cc1[O-].[O]=[V]",
    "CLASSIFICATION": "low"
  },
  {
    "MOLECULE": "N#CC(=C1C=CC(=NO)C=C1)c1ccccc1",
    "CLASSIFICATION": "high"
  },
  {
    "MOLECULE": "Nc1ccc2c(=S)c3ccccc3[nH]c2c1",
    "CLASSIFICATION": "low"
  },
  {
    "MOLECULE": "Cc1ccc(N=Nc2ccc(O)c(C)c2)cc1",
    "CLASSIFICATION": "low"
  },
  {
    "MOLECULE": "O=C(/C=N/O)Nc1cc(Cl)c(Cl)cc1Cl",
    "CLASSIFICATION": "high"
  },
  {
    "MOLECULE": "S=C(S)NCC1CCC(CNC(=S)S)CC1 (stereo unspecified)",
    "CLASSIFICATION": "high"
  },
  {
    "MOLECULE": "COc1ccc(/C=C(\\NC(=O)c2ccccc2)C(=O)NN(C)c2ccnc3cc(Cl)ccc23)cc1OC",
    "CLASSIFICATION": "low"
  },
  {
    "MOLECULE": "Cc1ccc(S(=O)(=O)Nc2ccc3c(c2)C(O)c2ccccc2-3)cc1 (stereo unspecified)",
    "CLASSIFICATION": "low"
  },
  {
    "MOLECULE": "COc1ccc(N=N/C(=N\\NC(=O)c2cc(Br)ccc2O)c2ccc(N(CCC#N)CCC#N)cc2OC)cc1",
    "CLASSIFICATION": "low"
  },
  {
    "MOLECULE": "Cc1c(-c2ccccc2)[nH]c2ccccc12",
    "CLASSIFICATION": "mid"
  },
  {
    "MOLECULE": "NCc1c(O)ccc2ccccc12",
    "CLASSIFICATION": "mid"
  },
  {
    "MOLECULE": "COc1cc(N)ccc1Nc1c2ccccc2nc2ccccc12",
    "CLASSIFICATION": "high"
  },
  {
    "MOLECULE": "O=C(NC(=S)Nc1ccccn1)c1ccccc1",
    "CLASSIFICATION": "high"
  },
  {
    "MOLECULE": "c1ccc(N2N=C3N(c4ccccc4)C2N3c2ccccc2)cc1",
    "CLASSIFICATION": "high"
  },
  {
    "MOLECULE": "CC(=O)CC(=O)/C=C/c1cccs1",
    "CLASSIFICATION": "high"
  },
  {
    "MOLECULE": "COC(=O)/C=C1/OC(c2ccc(Br)cc2)=C(Br)C1=O",
    "CLASSIFICATION": "low"
  },
  {
    "MOLECULE": "CC(=O)C1=C(O)C2(C)c3c(O)c(C)c(O)c(C(C)=O)c3OC2(Sc2ccccc2)CC1=O (stereo unspecified)",
    "CLASSIFICATION": "mid"
  },
  {
    "MOLECULE": "COC(=O)c1ccc2c(c1)Cc1ccccc1-2",
    "CLASSIFICATION": "low"
  },
  {
    "MOLECULE": "COc1cc(CNc2ccc(C(C)C)cc2)cc(OC)c1OC",
    "CLASSIFICATION": "low"
  },
  {
    "MOLECULE": "CC(=O)c1cc2c(Cl)cc(Cl)cc2oc1=O",
    "CLASSIFICATION": "mid"
  },
  {
    "MOLECULE": "O=C(CNS(=O)(=O)Cc1ccccc1)NNc1ccccc1",
    "CLASSIFICATION": "mid"
  },
  {
    "MOLECULE": "CCCCCCCCCCCCCC(=O)OC(C)CCC1CCCO1 (stereo unspecified)",
    "CLASSIFICATION": "low"
  },
  {
    "MOLECULE": "CCCCOC(=O)CSSCC(=O)OCCCC",
    "CLASSIFICATION": "high"
  },
  {
    "MOLECULE": "O=C(O)c1[nH]c(=O)c2ccccc2c1Nc1ccccc1",
    "CLASSIFICATION": "low"
  },
  {
    "MOLECULE": "Cc1ccc(I)cc1N=C=S",
    "CLASSIFICATION": "mid"
  }
]
